molecular target: GLP-1 receptor (GLP-1R) (human, UniProt P43220 24-463); assay: cell-based or functional assay
Starred links: 1 amine or outer side, 2 acyl side, 3 side chain; linkers in the order of their positions; H or OH if unused. Non-standard residues stand in square brackets, D forms with d. Groups on a side chain read outwards from the residue. Primed or numbered codes have the meaning given here. No end group written: not given here. *: point of attachment. Dodecanoyl(12-OPh(4-COOH)) = O=C(O)c1ccc(OCCCCCCCCCCCC(=O)*)cc1; γGlu = O=C(O)[C@H](CCC(=O)[*:2])N[*:1]; Stearoyl = CCCCCCCCCCCCCCCCCC(=O)*; Palmitoyl = CCCCCCCCCCCCCCCC(=O)*; αMeF = C[C@](N)(Cc1ccccc1)C(=O)O; αMeK = C[C@](N)(CCCCN)C(=O)O; αMeS = C[C@](N)(CO)C(=O)O; PEG2′ = not defined here; Aib = CC(C)(N)C(=O)O
Let's look at some binders and their measured cAMP Mean pM GLP-1R.
experimental endpoint: cAMP Mean pM GLP-1R (pM)

{"columns": ["binder", "experimental endpoint", "reading unit", "reading"],
 "data": [
  ["H[Aib]K([PEG2′-PEG2′-γGlu-Stearoyl])GS[αMeF]TSDV[αMeS]S[αMeF]LEGEAA[αMeK]E[αMeF]IA[αMeF]VV[αMeK]GG-NH2 [SEQ ID NO 126]", "cAMP Mean pM GLP-1R", "pM", 25400],
  ["H[Aib]EGK([PEG2′-PEG2′-γGlu-Stearoyl])[αMeF]TSDV[αMeS]S[αMeF]LEGEAA[αMeK]E[αMeF]IA[αMeF]VV[αMeK]GG-NH2 [SEQ ID NO 124]", "cAMP Mean pM GLP-1R", "pM", 25100],
  ["H[Aib]EGS[αMeF]TSDV[αMeS]S[αMeF]LEGEAAK([PEG2′-PEG2′-γGlu-Palmitoyl])E[αMeF]IA[αMeF]VV[αMeK]GG-NH2 [SEQ ID NO 109]", "cAMP Mean pM GLP-1R", "pM", 34],
  ["H[Aib]EGS[αMeF]TSDV[αMeS]S[αMeF]LEGEAAK([PEG2′-PEG2′-Dodecanoyl(12-OPh(4-COOH))])E[αMeF]IA[αMeF]VV[αMeK]GG-NH2 [SEQ ID NO 144]", "cAMP Mean pM GLP-1R", "pM", 12.6]
]}
